tested on: KM-20L2; assay: NCI tumour cell line growth inhibition, 48 h
Calls of active or inactive are those of the source. Rule as the data show it: active = GI50 up to about 1.1 µM and inactive = higher.
measurementName: GI50

molecule: CCC(=O)OC1CCn2c1nc1c2C(=O)C(C)=C(NC(C)=O)C1=N (stereo unspecified)
GI50: 1.73 µM (inactive)

molecule: COc1cc2c(c(OC)c1)C(=O)C(=O)C(CC1(C)OCCCO1)=C2
GI50: 17.9 µM (inactive)

molecule: COc1cccc(NC(=O)CC(=O)N2N=C(n3ccc4ccccc43)CC2c2ccccc2)c1 (stereo unspecified)
GI50: > 100 µM (inactive)

molecule: CCOC(=O)/C(C#N)=C(O)/C(=C\c1ccc(Br)cc1)NC(=O)c1ccccc1
GI50: > 100 µM (inactive)

molecule: CCN(CC)CCN(C)CC(C)(C)C(=O)/C=C/c1ccccc1
GI50: 11.1 µM (inactive)

Looking up `COc1cc2ccc(CC#N)cc2cc1OC` , I found its GI50 recorded as > 100 µM (inactive)
